biological target: human TRPA1 (Homo sapiens, UniProt O75762, K186N/R3C/R58T); construct: expressed in transfected cells; pcDNA3 control cells; assay: Intracellular calcium (Fluo-4, FLIPR) activation of TRPA1 cells by GRAS compounds; format: cell-based; conditions: read-out: A1 activation, % of agonist value
Sequence (O75762 whole entry R3C/R58T/K186N): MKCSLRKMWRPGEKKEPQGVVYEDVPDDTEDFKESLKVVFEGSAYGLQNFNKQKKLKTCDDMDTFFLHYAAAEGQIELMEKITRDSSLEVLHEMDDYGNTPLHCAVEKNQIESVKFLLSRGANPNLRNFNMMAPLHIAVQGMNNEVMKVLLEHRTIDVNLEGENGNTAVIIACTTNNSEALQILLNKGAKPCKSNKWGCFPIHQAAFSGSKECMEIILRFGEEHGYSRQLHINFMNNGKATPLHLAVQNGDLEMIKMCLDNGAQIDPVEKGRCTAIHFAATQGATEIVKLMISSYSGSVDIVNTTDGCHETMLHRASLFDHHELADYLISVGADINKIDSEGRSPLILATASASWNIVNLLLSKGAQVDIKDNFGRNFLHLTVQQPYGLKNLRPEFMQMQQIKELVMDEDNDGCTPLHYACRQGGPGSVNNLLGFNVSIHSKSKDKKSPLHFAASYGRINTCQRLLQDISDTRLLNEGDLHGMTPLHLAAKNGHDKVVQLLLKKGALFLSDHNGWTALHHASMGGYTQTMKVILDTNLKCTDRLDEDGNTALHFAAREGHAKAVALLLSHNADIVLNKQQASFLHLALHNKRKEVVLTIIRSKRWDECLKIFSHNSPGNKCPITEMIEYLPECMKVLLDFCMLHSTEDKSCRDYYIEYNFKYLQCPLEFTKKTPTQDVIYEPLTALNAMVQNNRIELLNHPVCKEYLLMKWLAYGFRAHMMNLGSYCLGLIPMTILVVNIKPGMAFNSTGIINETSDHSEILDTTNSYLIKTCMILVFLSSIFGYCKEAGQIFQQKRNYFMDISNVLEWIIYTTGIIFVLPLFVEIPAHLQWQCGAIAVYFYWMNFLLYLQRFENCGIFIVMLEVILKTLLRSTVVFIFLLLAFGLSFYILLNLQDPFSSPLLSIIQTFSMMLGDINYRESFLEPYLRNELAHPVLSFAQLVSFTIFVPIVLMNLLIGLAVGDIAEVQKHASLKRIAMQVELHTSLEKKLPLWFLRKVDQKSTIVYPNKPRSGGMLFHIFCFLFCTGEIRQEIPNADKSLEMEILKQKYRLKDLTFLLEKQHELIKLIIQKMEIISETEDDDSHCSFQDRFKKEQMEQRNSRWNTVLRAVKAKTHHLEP
test.readout: activation at 1000 µM
Write the numeric value and follow it with the unit.

Previously resolved entries follow.
molecule="CCOC(=O)C(Cc1ccccc1)C(C)=O (stereo not shown) [Ethyl 2-benzylacetoacetate]" recorded_measurement=98%
molecule="O=CC=Cc1ccccc1 [Cinnamaldehyde]" recorded_measurement=51.2%
molecule="O=C1NS(=O)(=O)c2ccccc21 [Saccharin]" recorded_measurement=92.6%
molecule="O=C(CCl)c1ccccc1 [2-Chloroacetophenone]" recorded_measurement=91.4%
molecule="CC(=O)OCc1ccc2c(c1)OCO2 [Piperonyl acetate]" recorded_measurement=62.7%

Each molecule below has a reported value. Please supply its activation at 1000 µM.
1. CC=C(C=O)c1ccccc1 [2-Phenyl-2-butenal]
2. OCC=Cc1ccccc1 [Cinnamyl alcohol]

Resp:
65.8%
89.8%

###

Provide the reported activation at 1000 µM of each item.
biological target: human TRPA1 (Homo sapiens, UniProt O75762, K186N/R3C/R58T); construct: expressed in transfected cells; pcDNA3 control cells; test: Intracellular calcium (Fluo-4, FLIPR) activation of TRPA1 cells by GRAS compounds; format: cell-based; conditions: Table 1(a); 1 mM; relative to AITC 30 μM; average of three plates; read-out: A1 activation, % of agonist value
One number for each entry, in %.

Previously resolved entries follow.
molecule="S=C=NCc1ccccc1 [Isothiocyanic acid, benzyl ester]" test_readout="activation at 1000 µM" recorded_measurement=110
molecule="c1ccc(CCCc2ccccn2)cc1 [2-(3-Phenylpropyl)pyridine]" test_readout="activation at 1000 µM" recorded_measurement=76
molecule="CCOCc1ccc(O)c(OC)c1 [Vanillyl ethyl ether]" test_readout="activation at 1000 µM" recorded_measurement=38
molecule="O=C(O)C(=O)Cc1ccccc1 [Phenylpyruvic acid]" test_readout="activation at 1000 µM" recorded_measurement=68

Proceed to the following item.
Kindly note the recorded activation at 1000 µM for CCCCC/C=C\C/C=C\CCCCCCCC(=O)O [Linoleic acid] , which is 170

###

Provide the reported activation at 1000 µM of each item.
molecular target: human TRPV1 (Homo sapiens, UniProt Q8NER1, M315I/T336M); construct: expressed in transfected cells; pcDNA3 control cells; assay: Intracellular calcium (Fluo-4, FLIPR) activation of TRPV1 cells by GRAS compounds; format: cell-based; details: Table 1(b); 1 mM; relative to capsaicin 350 nM; read-out: V1 activation, % of agonist value;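 note: TRPV1-expressing cells, FLIPR fluorescence at 488/514 nm with baseline subtracted, sampled every 2 s for 10 min after adding compound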
Sequence (Q8NER1 whole entry M315I/T336M): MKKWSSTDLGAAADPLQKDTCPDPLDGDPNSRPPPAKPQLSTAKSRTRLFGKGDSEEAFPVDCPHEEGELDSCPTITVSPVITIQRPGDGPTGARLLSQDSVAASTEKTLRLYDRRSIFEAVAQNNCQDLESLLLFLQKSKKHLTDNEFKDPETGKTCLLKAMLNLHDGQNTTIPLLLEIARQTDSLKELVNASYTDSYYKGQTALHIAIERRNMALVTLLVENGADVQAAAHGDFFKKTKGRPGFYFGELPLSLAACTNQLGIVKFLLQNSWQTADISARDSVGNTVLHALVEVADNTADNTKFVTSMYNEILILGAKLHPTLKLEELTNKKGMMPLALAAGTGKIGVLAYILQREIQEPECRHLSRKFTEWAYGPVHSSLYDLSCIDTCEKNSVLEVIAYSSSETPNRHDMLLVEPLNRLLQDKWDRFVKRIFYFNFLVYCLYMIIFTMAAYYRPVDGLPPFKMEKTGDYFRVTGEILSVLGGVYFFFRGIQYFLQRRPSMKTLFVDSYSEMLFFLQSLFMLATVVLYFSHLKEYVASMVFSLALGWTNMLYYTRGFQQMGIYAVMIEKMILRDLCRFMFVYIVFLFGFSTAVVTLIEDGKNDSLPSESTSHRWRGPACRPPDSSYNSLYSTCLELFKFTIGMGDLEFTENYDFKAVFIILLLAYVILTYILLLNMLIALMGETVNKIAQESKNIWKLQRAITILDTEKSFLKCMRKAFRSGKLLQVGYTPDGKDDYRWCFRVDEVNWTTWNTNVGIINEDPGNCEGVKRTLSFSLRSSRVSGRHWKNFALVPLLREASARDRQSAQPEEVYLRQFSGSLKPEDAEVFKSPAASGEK
Numbers only, in %.

Previously resolved entries follow.
compound="CC(CC=O)CC(C)(C)C (centres unmarked)" recorded_measurement=217
compound="CCCCCC/C=C/C=O [(E)-2-Nonenal]" recorded_measurement=89
compound=COc1cc(CCC(C)=O)ccc1O recorded_measurement=60
compound="COC(=O)C1CCCCC1 [Methyl cyclohexanecarboxylate]" recorded_measurement=69.5
compound="CCCC1CC(=O)C=C(C)C1 (centres unmarked)" recorded_measurement=59.2

Each compound below has a reported value. Please supply its activation at 1000 µM.
1. OCCCc1ccccc1
2. CC(=O)C(C)S (centres unmarked)

Resp:
32
63.8

Kindly note the recorded activation at 1000 µM for CCCCCC(O)CC(=O)OCC (centres unmarked) [Ethyl 3-hydroxyoctanoate] , which is 28.1

###

biological target: human TRPA1 (Homo sapiens, UniProt O75762, K186N/R3C/R58T); construct: expressed in transfected cells; pcDNA3 control cells; assay: Intracellular calcium (Fluo-4, FLIPR) activation of TRPA1 cells by GRAS compounds; assay type: cell-based; conditions: Table 1(d); 100 μM (*); relative to AITC 30 μM; read-out: A1 activation, % of agonist value
Provide the reported activation at 100 µM of each item.
Answers are plain numbers, in %.

Each molecule below has a reported value. Please supply its activation at 100 µM.
1. CCCCC(=O)C(CCC)Sc1ccoc1C (stereo not shown) [4-(2-Methyl-3-furylthio)-5-nonanone]
2. CC(=O)C(=O)c1ccccc1 [1-Phenyl-1,2-propanedione]
3. CCCCCCCCCCC=CC=O [2-Tridecenal]
4. CC(=O)C(C)S (stereo not shown) [3-Mercaptobutanone, 3-Mercapto-2-butanone]

Resp:
[52.5, 100, 76.3, 68.9]

###

biological target: human TRPA1 (Homo sapiens, UniProt O75762, K186N/R3C/R58T); construct: expressed in transfected cells; pcDNA3 control cells; experiment: Intracellular calcium (Fluo-4, FLIPR) activation of TRPA1 cells by GRAS compounds; format: cell-based; details: Table 1(c); 1 mM; relative to AITC 30 μM
Counter-ions that a name gives are not always drawn.
test.readout: A1 activation, % of agonist value (%)
One number for each entry, in %.

Each compound below has a reported value. Please supply its A1 activation, % of agonist value.
1. CC1=CCCC(C)(C)C12CCC(C)O2 (centres unmarked) [Theaspirane]
2. CC(C)=CCC[C@](C)(O)[C@@H]1CC=C(C)CC1 [(−)-Alpha-Bisabolol]
3. CC1=CCC(C(C)(C)OC=O)CC1 (stereo not drawn) [alpha-Terpinyl formate]
4. CC(=O)/C=C/C1C(C)=CCCC1(C)C (racemic) [(+/−)-Alpha-Ionone]
5. C=C(C)CCCC(C)CCOC(C)=O (centres unmarked) [Rhodinyl acetate]
6. Cc1ccccc1OC(=O)C(C)C [O-Tolyl isobutyrate]
7. CCOc1cc(C2OCC(C)O2)ccc1O (centres unmarked) [Ethyl vanillin propylene glycol acetal]
8. CCCCCOC(=O)c1ccco1 [Amyl furoate]

Resp:
99
71.26
82.2
64.62
89.06
49.37
66.41
81.09

Each compound below has a reported value. Please supply its A1 activation, % of agonist value.
1. CC(C)=CCCC(C)C=O (centres unmarked) [Melonal]
2. O=C(Nc1ccccc1C(=O)O)c1ccccc1 [Benzoylanthranilic acid]
3. CC(=O)CCC1=C(C)CCCC1(C)C [Dihydro-beta-ionone]
4. CCCCC/C=C/C=O [trans-2-Octanal]
5. CC1=C(C=O)C(C)(C)CC=C1 [Safranal]
6. C=C(C)[C@@H]1CCC2=CCC[C@@H](C)[C@]2(C)C1 [Valencene]
7. COc1ccccc1C=CC=O [O-Methoxycinnamaldehyde]
8. CCC(=O)Oc1c(C)occc1=O [Maltol propionate]

Resp:
52
145.9
64.4
112
73
61.97
65.3
85.04

Each compound below has a reported value. Please supply its A1 activation, % of agonist value.
1. CC/C=C\CC/C=C/C=O [2-trans-6-cis-Nonadienal]
2. CC(C)[C@@H]1CC[C@@H](C)C[C@H]1O (racemic) [DL-Menthol]
3. COc1ccc(COC=O)cc1 [Anisyl formate]

Resp:
1: 77.3; 2: 54.02; 3: 89.5

###

target: human TRPA1 (Homo sapiens, UniProt O75762, K186N/R3C/R58T); construct: expressed in transfected cells; pcDNA3 control cells; test: Intracellular calcium (Fluo-4, FLIPR) activation of TRPA1 cells by GRAS compounds; format: cell-based; details: Table 1(c); 1 mM; relative to AITC 30 μM; read-out: A1 activation, % of agonist value;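 note: TRPA1-expressing cells, fluorescence read on a FLIPR Tetra (ex 488 nm, em 514 nm) every 2 s for 10 min after compound addition, baseline subtracted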
test.readout: activation at 1000 µM (%)
One number for each entry, in %.

Each compound below has a reported value. Please supply its activation at 1000 µM.
1. CCOC(=O)c1ccc(OC)cc1 [Ethyl p-anisate]
2. CC(=O)c1cc(C)oc1C [3-Acetyl-2,5-dimethylfuran]

Resp:
[91.2, 73.5]

Each compound below has a reported value. Please supply its activation at 1000 µM.
1. Cc1c(C(=O)O)c(O)cc2c1C(=O)c1c(O)c(C3O[C@H](CO)[C@@H](O)[C@H](O)[C@H]3O)c(O)c(O)c1C2=O (stereo in doubt) [Carmine]
2. CC/C=C/C=C/CO [(E,E)-Hepta-2,4-dien-1-ol]
3. C=CC(C)=CCC=C(C)C [beta-Ocimene]
4. CC/C=C/CC/C=C/C=O [(E,E)-2,6-Nonadienal]
5. COc1ccc(CCC(C)=O)cc1 [4-Methoxybenzylacetone]
6. CC=CC=CCOC(=O)CC [2,4-Hexadienyl propionate]
7. CC=CC=CCO [2,4-Hexadienol]

Resp:
[66.2, 146, 112, 87.1, 62.3, 93.2, 78]

Each compound below has a reported value. Please supply its activation at 1000 µM.
1. COC(=O)c1ccccc1N(C)C
2. C/C=C/C=C/C(=O)OC [Methyl sorbate]
3. COC(=O)c1ccc(O)cc1 [Methylparaben]
4. CC/C=C\CCOC(=O)C/C=C\CC [cis-3-Hexenyl cis-3-hexenoate]
5. O=C(O)C=Cc1ccccc1 [Cinnamic acid]
6. O=CC=Cc1ccco1 [3-(2-Furyl)acrolein]

Resp:
74.2
76
62
107
37.7
68.4

Each compound below has a reported value. Please supply its activation at 1000 µM.
1. CC(=O)c1ccc2ccccc2c1 [2-Acetylnaphthalene]
2. CCCCCC=CC(=O)OCC [Ethyl 2-octenoate]
3. CCCCCCCCCO [Nonyl alcohol]
4. CC1=CC(=O)CCC1 [3-Methyl-2-cyclohexen-1-one]
5. C=CCOC(=O)c1ccccc1N [Allyl anthranilate]
6. C=CCc1ccc(OC(C)=O)c(OC)c1 [Eugenyl acetate]
7. Cc1ccc(C=O)c(C)c1 [2,4-Dimethylbenzaldehyde]

Resp:
1. 60.3
2. 128
3. 71.1
4. 94.5
5. 73.8
6. 75.4
7. 107

Fill in: human TRPA1 (Homo sapiens, UniProt O75762, K186N/R3C/R58T) activation at 1000 µM for CCC(=O)OCCOc1ccccc1 [Phenoxyethyl propionate] = 65.5

These measurements were taken from patent US9427415B2.
